Listed here: items and their measured CDK2 HIBIT Protein Quantification Maximum.
# experimentalTarget: CDK2 (Homo sapiens)
# Construct: host or cells: HEK293-CDK2-Hibit
# assay: HiBit Assay Protocol for CDK2 (HIBIT protein quantification, degradation)
# Format: cell-based
# testConditions: HEK293-CDK2-Hibit cells, compound treatment for 6 hours
The response must be a number in % with no trailing unit.

[
  {
    "compound": "CC1CCCC1N1C(=O)C2(CC2)c2cnc(NC3CCN(S(=O)(=O)N4CCC5(CCN(C(=O)CCCCCCCCCc6ccc7c(c6)n(C)c(=O)n7C6CCC(=O)NC6=O)C5)C4)CC3)nc21 (stereo not drawn) [Compound 89]",
    "experimentalTarget": "CDK2 (Homo sapiens)",
    "uom": "%",
    "recordedMeasurement": 50
  },
  {
    "compound": "Cn1nc(N2CCC(=O)NC2=O)c2ccc(C3CCN(Cc4cccc(S(=O)(=O)N5CCC(Nc6ncc7c(n6)N([C@H]6CCC[C@]6(C)O)C(=O)C76CC6)CC5)c4)CC3)cc21 [Compound 178]",
    "experimentalTarget": "CDK2 (Homo sapiens)",
    "uom": "%",
    "recordedMeasurement": 75
  }
]

In the following, a different compound is considered.
Per the record, C[C@H](c1cccc(S(=O)(=O)N2CC[C@H](Nc3ncc4c(n3)N([C@@H]3CCC[C@@H](O)C3)C(=O)C43CC3)[C@H](F)C2)c1)N1CCC(c2ccc3c(N4CCC(=O)NC4=O)nn(C)c3c2)CC1 [Compound 198] has CDK2 HIBIT Protein Quantification Maximum of 80

---

# experimentalTarget: CDK9 (Homo sapiens)
# Construct: host or cells: HEK293-CDK9-Hibit
# Sequence (P50750 whole entry): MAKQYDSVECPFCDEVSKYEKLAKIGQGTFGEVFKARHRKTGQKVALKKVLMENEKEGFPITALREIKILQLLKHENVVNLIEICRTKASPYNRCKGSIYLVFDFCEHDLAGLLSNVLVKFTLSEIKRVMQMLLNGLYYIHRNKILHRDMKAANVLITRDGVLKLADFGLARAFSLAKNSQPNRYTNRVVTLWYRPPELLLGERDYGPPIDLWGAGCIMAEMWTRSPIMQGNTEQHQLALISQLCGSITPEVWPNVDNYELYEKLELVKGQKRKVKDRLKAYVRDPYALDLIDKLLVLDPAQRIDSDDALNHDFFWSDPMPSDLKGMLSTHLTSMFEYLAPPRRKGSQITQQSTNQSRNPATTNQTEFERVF
# assay: HiBit Assay Protocol for CDK9 (HIBIT protein quantification, degradation)
# Assay type: cell-based
# testConditions: HEK293-CDK9-Hibit cells, compound treatment for 6 hours; read-out: CDK9 HIBIT Protein Quantification Maximum
endpoint: Dmax (%)
The response must be a number in % with no trailing unit.

These recorded examples may help you get a feel for the data.
[
  {
    "molecule": "Cn1c(=O)n(C2CCC(=O)NC2=O)c2cccc(N3CCC(Cn4cc(S(=O)(=O)N5CCC(Nc6ncc7c(n6)N([C@@H]6CCC[C@@H](O)C6)C(=O)C76CC6)CC5)cn4)CC3)c21 (stereo partly shown)",
    "Dmax (%)": 13
  },
  {
    "molecule": "O=C1CCC(N2Cc3cc(N4CCC(N5CC(Oc6cccc(S(=O)(=O)N7CCC(Nc8ncc9c(n8)N([C@@H]8CCC[C@@H](O)C8)C(=O)C98CC8)CC7)c6)C5)CC4)ccc3C2=O)C(=O)N1 (stereo partly shown)",
    "Dmax (%)": 31
  }
]

Form: item Cn1nc(N2CCC(=O)NC2=O)c2cccc(C3CCN(Cc4cccc(S(=O)(=O)N5CCC(Nc6ncc7c(n6)N([C@H]6CCC[C@H](O)C6)C(=O)C76CC6)CC5)c4)CC3)c21 (stereo in doubt) ; test system CDK9 (Homo sapiens); Dmax: 4

Form: item O=C1CCC(N2Cc3cc(N4CCC(CN5CCN(c6cccc(S(=O)(=O)N7CCC(Nc8ncc9c(n8)N([C@@H]8CCC[C@@H](O)C8)C(=O)C98CC8)CC7)c6)CC5)CC4)ccc3C2=O)C(=O)N1 (stereo partly shown) ; test system CDK9 (Homo sapiens); Dmax: 25
